Every entry's value here was drawn from patent US20120088746A1.

target: human VR1 (Homo sapiens, UniProt Q8NER1)
Sequence (Q8NER1 whole entry): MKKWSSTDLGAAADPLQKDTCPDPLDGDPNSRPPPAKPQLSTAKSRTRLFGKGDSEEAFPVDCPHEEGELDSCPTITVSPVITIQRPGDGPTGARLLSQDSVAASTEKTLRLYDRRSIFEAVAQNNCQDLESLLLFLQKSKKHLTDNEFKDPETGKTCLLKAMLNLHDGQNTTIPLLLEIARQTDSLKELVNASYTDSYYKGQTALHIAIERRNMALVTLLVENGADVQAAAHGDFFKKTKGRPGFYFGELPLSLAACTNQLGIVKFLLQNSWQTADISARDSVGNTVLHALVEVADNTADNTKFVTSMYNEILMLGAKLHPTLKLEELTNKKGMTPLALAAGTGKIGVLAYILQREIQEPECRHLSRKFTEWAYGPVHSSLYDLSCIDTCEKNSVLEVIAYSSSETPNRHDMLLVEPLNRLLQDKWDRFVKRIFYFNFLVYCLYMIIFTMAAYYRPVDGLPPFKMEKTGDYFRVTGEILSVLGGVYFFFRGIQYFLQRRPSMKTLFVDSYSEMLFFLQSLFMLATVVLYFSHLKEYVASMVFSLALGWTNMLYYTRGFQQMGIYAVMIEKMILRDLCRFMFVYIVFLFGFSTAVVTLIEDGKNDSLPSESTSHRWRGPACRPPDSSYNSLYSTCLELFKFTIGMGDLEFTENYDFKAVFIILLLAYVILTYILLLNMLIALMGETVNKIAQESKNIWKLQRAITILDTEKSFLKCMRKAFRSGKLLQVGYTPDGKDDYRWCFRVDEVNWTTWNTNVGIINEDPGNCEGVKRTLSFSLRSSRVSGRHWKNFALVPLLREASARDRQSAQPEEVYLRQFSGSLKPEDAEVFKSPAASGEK
test details: Acid stimulation assay (acid-induced intracellular calcium change, FDSS 6000)
Format: cell-based
condition details: final assay buffer pH5.8, 15 min pre-incubation, read-out: IC50 (nM) Low pH
Counter-ions that a name gives are not always drawn.
reported metric: IC50 (nM)
Numbers only, in nM.

Field: example entries. Status: answers known.
Cc1cc([C@@H](C)NC(=O)c2ccc3nc(C(F)(F)F)cc(NC4CCCCC4)c3c2)c(F)cc1NS(C)(=O)=O ... 41
Cc1cc([C@@H](C)NC(=O)c2cnc3cc(C4CC4)cnc3c2)c(F)cc1NS(C)(=O)=O ... 111
Cc1cc([C@@H](C)NC(=O)c2ccc3cc(C(C)(C)O)ccc3n2)ccc1NS(C)(=O)=O ... 71

Provide reported IC50 for each item, in the same order as listed.
1. Cc1cc([C@@H](C)NC(=O)c2ccc3cc(C(F)(F)F)ccc3c2)ncc1NS(C)(=O)=O
2. Cc1cc([C@@H](C)NC(=O)c2ccc3cc(C(C)(O)C(F)(F)F)ccc3c2)c(F)cc1NS(C)(=O)=O (stereo partly drawn)
3. Cc1cc([C@@H](C)NC(=O)c2ccc3nc(N4CCOCC4)ccc3c2)c(F)cc1NS(C)(=O)=O
4. CC(C)c1ccc2cc(C(=O)N[C@H](C)c3cc(F)c(NS(C)(=O)=O)c(F)c3)ccc2n1
5. Cc1cc([C@@H](C)NC(=O)c2cc3ccc(Cl)cc3nc2C)ccc1NS(C)(=O)=O
6. C[C@@H](NC(=O)c1ccc2cc(C(F)(F)F)ccc2c1)c1ccc(NS(C)(=O)=O)c(CO)c1
7. Cc1cc([C@@H](C)NC(=O)c2ccc3cc(C(C)C)ccc3n2)ccc1NS(C)(=O)=O
8. Cc1cc([C@@H](C)NC(=O)c2cnc3cc(C(F)(F)F)ccc3c2C)ccc1NS(C)(=O)=O

*A*
1. 12
2. 41
3. 748
4. 47
5. 379
6. 13
7. 714
8. 240

Provide reported IC50 for each item, in the same order as listed.
1. Cc1cc([C@@H](C)NC(=O)c2ccc3cc(C(C)(C)C)ccc3n2)c(F)cc1NS(C)(=O)=O
2. Cc1cc([C@@H](C)NC(=O)c2ccc3cc(C4CC4)ccc3c2)ccc1NS(C)(=O)=O

*A*
[288, 3]

Provide reported IC50 for each item, in the same order as listed.
1. C[C@@H](NC(=O)c1ccc2nc(C(C)(C)C)ccc2c1)c1cc(F)c(NS(C)(=O)=O)c(F)c1 [Example 15, HYDROCHLORIDE]
2. COc1ccc2cc(C(=O)N[C@H](C)c3ccc(NS(C)(=O)=O)c(C)c3)ccc2c1

*A*
24
8
